Molecular target: UniProt P14616
Sequence (P14616 27-1297): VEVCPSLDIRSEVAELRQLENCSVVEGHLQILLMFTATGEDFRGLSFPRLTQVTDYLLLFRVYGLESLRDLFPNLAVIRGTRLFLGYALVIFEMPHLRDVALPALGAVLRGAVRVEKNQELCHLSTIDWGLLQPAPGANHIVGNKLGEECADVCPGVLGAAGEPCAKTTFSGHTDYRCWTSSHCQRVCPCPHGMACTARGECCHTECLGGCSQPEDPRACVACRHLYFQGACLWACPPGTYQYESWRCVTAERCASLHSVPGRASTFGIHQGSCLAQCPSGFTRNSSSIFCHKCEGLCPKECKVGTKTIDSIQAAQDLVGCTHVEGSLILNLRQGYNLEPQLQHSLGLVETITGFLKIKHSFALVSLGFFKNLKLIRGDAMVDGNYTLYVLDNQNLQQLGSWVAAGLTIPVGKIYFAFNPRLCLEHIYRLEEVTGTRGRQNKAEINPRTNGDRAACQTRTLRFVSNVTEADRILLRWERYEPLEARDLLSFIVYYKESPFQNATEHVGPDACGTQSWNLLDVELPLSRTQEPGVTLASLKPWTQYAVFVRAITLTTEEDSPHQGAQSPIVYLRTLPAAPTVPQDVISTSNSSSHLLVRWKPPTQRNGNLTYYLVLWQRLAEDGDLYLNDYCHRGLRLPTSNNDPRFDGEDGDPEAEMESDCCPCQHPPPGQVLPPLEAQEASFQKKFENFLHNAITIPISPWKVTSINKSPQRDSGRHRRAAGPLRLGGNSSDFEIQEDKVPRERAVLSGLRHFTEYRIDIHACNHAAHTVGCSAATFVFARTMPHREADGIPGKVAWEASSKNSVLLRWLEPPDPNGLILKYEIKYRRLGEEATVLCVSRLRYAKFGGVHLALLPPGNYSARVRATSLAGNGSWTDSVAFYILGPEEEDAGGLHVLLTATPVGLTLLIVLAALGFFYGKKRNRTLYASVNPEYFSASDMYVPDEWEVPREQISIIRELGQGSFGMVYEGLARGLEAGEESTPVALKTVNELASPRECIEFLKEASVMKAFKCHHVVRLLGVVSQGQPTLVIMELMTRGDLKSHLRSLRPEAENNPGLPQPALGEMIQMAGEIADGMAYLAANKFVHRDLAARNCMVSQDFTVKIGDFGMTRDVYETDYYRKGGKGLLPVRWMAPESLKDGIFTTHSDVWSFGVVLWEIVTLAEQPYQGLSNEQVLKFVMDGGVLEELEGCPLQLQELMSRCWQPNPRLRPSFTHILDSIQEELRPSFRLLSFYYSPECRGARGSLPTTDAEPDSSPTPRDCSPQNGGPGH
Assay: Kinase panel profiling at 1 µmol/L (MSA or IMAP), percentage inhibition
Format: biochemical
Settings: kinase IRR; 1 µmol/L single concentration; read-out: %-inhibition at 1 µmol/L, IRR
Assignment: determine reported inhibition at 1 µM for the given compounds.
Quote the value and follow it with the unit of measurement.

{"querySmiles": "CO[C@]1(C(=O)N[C@@H](C)c2ccc(-n3cc(F)cn3)nc2)CC[C@H](c2nc(C)cc(Nc3cc(C)[nH]n3)n2)CC1", "testSystem": "UniProt P14616", "recordedResult": "10%"}
{"querySmiles": "CCN1CCN(c2ccc(Nc3cc(N(C)C(=O)Nc4c(Cl)c(OC)cc(OC)c4Cl)ncn3)cc2)CC1", "testSystem": "UniProt P14616", "recordedResult": "34%"}
{"querySmiles": "FC(F)(F)c1ccc(CNc2ccc(Cc3c[nH]c4ncc(Cl)cc34)cn2)cn1", "testSystem": "UniProt P14616", "recordedResult": "14%"}

Quick batch: inhibition at 1 µM for everything below.
1. COc1ccc(CN2C3CC2CN(c2ccc(-c4cc(OCC(C)(C)O)cn5ncc(C#N)c45)cn2)C3)cn1
2. Cc1cc(Nc2ncnc3ccc(NC4=NC(C)(C)CO4)cc23)ccc1Oc1ccn2ncnc2c1
3. CN1CCN(c2ccc(C(=O)Nc3n[nH]c4ccc(Cc5cc(F)cc(F)c5)cc34)c(NC3CCOCC3)c2)CC1
4. COc1cc2ncnc(Nc3ccc(F)c(Cl)c3)c2cc1NC(=O)/C=C/CN1CCCCC1

3%
3%
100%
6%

###

Test system: 134 cancer cell lines
Assay: Cell viability assay (ATPlite, 72 hours), IC50 on cancer cell line panel
Details: Homo sapiens, OVCAR-3, read-out: IC50 in cell proliferation assay, cell line OVCAR-3
pIC50: −log10 of the molar value.
measurementName: pIC50

# count of solved cases: 5
{"compound": "Cn1cnc2c(F)c(Nc3ccc(Br)cc3F)c(C(=O)NOCCO)cc21 [binimetinib]", "recordedResult": "< 4.50"}
{"compound": "Cc1cc(Nc2ncnc3ccc(NC4=NC(C)(C)CO4)cc23)ccc1Oc1ccn2ncnc2c1 [tucatinib]", "recordedResult": "< 4.50"}
{"compound": "Cc1nc(NC(=O)N2CCC[C@H]2C(N)=O)sc1-c1ccnc(C(C)(C)C(F)(F)F)c1 [alpelisib]", "recordedResult": 5.21}
{"compound": "O=C(Nc1cnn2ccc(N3CCC[C@@H]3c3cc(F)ccc3F)nc12)N1CC[C@H](O)C1 [larotrectinib]", "recordedResult": "< 4.50"}
{"compound": "CC(=O)Nc1cccc(-n2c(=O)n(C3CC3)c(=O)c3c(Nc4ccc(I)cc4F)n(C)c(=O)c(C)c32)c1 [trametinib]", "recordedResult": "< 4.55"}

Can you look up pIC50 on 134 cancer cell lines for O=C(c1ccc(F)c(F)c1Nc1ccc(I)cc1F)N1CC(O)([C@@H]2CCCCN2)C1 [cobimetinib] ?
< 5.00

###

Assignment: determine reported inhibition at 1 µM for the given molecules.
Molecular target: panel of 255 wild-type kinases (Homo sapiens, UniProt O15146)
Sequence (O15146 24-869): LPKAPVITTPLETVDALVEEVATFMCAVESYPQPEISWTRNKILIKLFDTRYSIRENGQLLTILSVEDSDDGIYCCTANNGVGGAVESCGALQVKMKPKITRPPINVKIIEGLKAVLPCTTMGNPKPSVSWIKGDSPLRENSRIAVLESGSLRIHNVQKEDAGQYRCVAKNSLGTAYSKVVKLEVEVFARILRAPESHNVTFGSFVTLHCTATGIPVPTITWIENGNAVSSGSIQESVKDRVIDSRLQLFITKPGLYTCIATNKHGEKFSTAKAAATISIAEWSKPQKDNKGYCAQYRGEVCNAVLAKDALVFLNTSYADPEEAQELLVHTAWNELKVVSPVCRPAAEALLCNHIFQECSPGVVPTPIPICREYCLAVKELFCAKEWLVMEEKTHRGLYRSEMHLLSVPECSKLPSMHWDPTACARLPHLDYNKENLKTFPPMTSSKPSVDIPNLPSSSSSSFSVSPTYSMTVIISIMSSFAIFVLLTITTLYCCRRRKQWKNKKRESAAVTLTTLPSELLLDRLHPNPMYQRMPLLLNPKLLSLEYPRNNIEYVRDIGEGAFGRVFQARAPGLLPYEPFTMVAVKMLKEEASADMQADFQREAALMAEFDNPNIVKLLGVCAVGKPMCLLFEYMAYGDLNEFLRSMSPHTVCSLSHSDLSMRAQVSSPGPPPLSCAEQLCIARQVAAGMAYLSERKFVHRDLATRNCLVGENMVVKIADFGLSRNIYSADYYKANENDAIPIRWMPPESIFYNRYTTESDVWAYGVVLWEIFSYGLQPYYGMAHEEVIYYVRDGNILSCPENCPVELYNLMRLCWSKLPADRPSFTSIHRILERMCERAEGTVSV
Experiment: Kinase panel profiling at 1 µmol/L (MSA or IMAP), percentage inhibition
Type: biochemical
Conditions: MUSK; 1 µmol/L single concentration; read-out: %-inhibition, MUSK
Give bare numbers, in %.

# count of solved cases: 6
{"molecule": "COc1cc2ncnc(Nc3ccc(F)c(Cl)c3)c2cc1NC(=O)/C=C/CN1CCCCC1 [dacomitinib]", "measurementName": "inhibition at 1 µM", "recordedResult": 22}
{"molecule": "CCN1CCN(c2ccc(Nc3cc(N(C)C(=O)Nc4c(Cl)c(OC)cc(OC)c4Cl)ncn3)cc2)CC1 [infigratinib]", "measurementName": "inhibition at 1 µM", "recordedResult": 24}
{"molecule": "CCc1nc(C(N)=O)c(Nc2ccc(N3CCC(N4CCN(C)CC4)CC3)c(OC)c2)nc1NC1CCOCC1 [gilteritinib]", "measurementName": "inhibition at 1 µM", "recordedResult": 99}
{"molecule": "CCN1C(=O)N(c2c(F)c(OC)cc(OC)c2F)Cc2cnc3[nH]c(CN4CCOCC4)cc3c21 [pemigatinib]", "measurementName": "inhibition at 1 µM", "recordedResult": 2.72}
{"molecule": "Cn1cnc2c(F)c(Nc3ccc(Br)cc3F)c(C(=O)NOCCO)cc21 [binimetinib]", "measurementName": "inhibition at 1 µM", "recordedResult": -4.46}
{"molecule": "CN1CCN(c2ccc(C(=O)Nc3n[nH]c4ccc(Cc5cc(F)cc(F)c5)cc34)c(NC3CCOCC3)c2)CC1 [entrectinib]", "measurementName": "inhibition at 1 µM", "recordedResult": 100}

We next turn to a different molecule, shown below.
What value of inhibition at 1 µM has been recorded for this entry: COc1ccc(CN2C3CC2CN(c2ccc(-c4cc(OCC(C)(C)O)cn5ncc(C#N)c45)cn2)C3)cn1 [selpercatinib]
10

###

System: 134 cancer cell lines
Experiment: Cell viability assay (ATPlite, 72 hours), IC50 on cancer cell line panel
Conditions: Rh30, read-out: IC50 in cell proliferation assay, cell line Rh30
Assignment: determine reported IC50 for the given compounds.
Answers are plain numbers, in µM.

{"compound": "C[C@H](Nc1ncnc2nc[nH]c12)c1cc2cccc(Cl)c2c(=O)n1-c1ccccc1 [duvelisib]", "testSystem": "134 cancer cell lines", "IC50 / µM": 12.2}
{"compound": "COc1cc2ncnc(Nc3ccc(F)c(Cl)c3)c2cc1NC(=O)/C=C/CN1CCCCC1 [dacomitinib]", "testSystem": "134 cancer cell lines", "IC50 / µM": 3.93}

We next turn to a different compound, shown below.
What value of IC50 has been recorded for this entry: COc1ccc(CN2C3CC2CN(c2ccc(-c4cc(OCC(C)(C)O)cn5ncc(C#N)c45)cn2)C3)cn1 [selpercatinib]
4.03

###

Assignment: determine reported inhibition at 1 µM for the given compounds.
Molecular target: panel of 255 wild-type kinases (Homo sapiens)
Assay: Kinase panel profiling at 1 µmol/L (MSA or IMAP), percentage inhibition
Assay type: biochemical
Conditions: kinase CK1ε; 1 µmol/L single concentration; read-out: %-inhibition at 1 µmol/L, CK1ε
Answers are plain numbers, in %.

# count of solved cases: 4
{"querySmiles": "COc1ccc(CN2C3CC2CN(c2ccc(-c4cc(OCC(C)(C)O)cn5ncc(C#N)c45)cn2)C3)cn1", "testSystem": "panel of 255 wild-type kinases (Homo sapiens)", "resultUnits": "%", "inhibition at 1 µM": 2.36}
{"querySmiles": "COc1cc2ncnc(Nc3ccc(F)c(Cl)c3)c2cc1NC(=O)/C=C/CN1CCCCC1", "testSystem": "panel of 255 wild-type kinases (Homo sapiens)", "resultUnits": "%", "inhibition at 1 µM": 6.55}
{"querySmiles": "CCN1CCN(c2ccc(Nc3cc(N(C)C(=O)Nc4c(Cl)c(OC)cc(OC)c4Cl)ncn3)cc2)CC1", "testSystem": "panel of 255 wild-type kinases (Homo sapiens)", "resultUnits": "%", "inhibition at 1 µM": -6.49}
{"querySmiles": "CCN1C(=O)N(c2c(F)c(OC)cc(OC)c2F)Cc2cnc3[nH]c(CN4CCOCC4)cc3c21", "testSystem": "panel of 255 wild-type kinases (Homo sapiens)", "resultUnits": "%", "inhibition at 1 µM": 1.32}

Quick batch: inhibition at 1 µM for everything below.
1. CO[C@]1(C(=O)N[C@@H](C)c2ccc(-n3cc(F)cn3)nc2)CC[C@H](c2nc(C)cc(Nc3cc(C)[nH]n3)n2)CC1
2. Cc1nc(NC(=O)N2CCC[C@H]2C(N)=O)sc1-c1ccnc(C(C)(C)C(F)(F)F)c1
3. Cn1cnc2c(F)c(Nc3ccc(Br)cc3Cl)c(C(=O)NOCCO)cc21

-3
-2.48
-0.361

Quick batch: inhibition at 1 µM for everything below.
1. C[C@H](Nc1ncnc2nc[nH]c12)c1cc2cccc(Cl)c2c(=O)n1-c1ccccc1
2. Cc1cc(Nc2ncnc3ccc(NC4=NC(C)(C)CO4)cc23)ccc1Oc1ccn2ncnc2c1
3. Cn1cc(-c2cc3c(N4CCN(c5ncc([C@@](C)(N)c6ccc(F)cc6)cn5)CC4)ncnn3c2)cn1

[5, 0.505, 2.14]

Quick batch: inhibition at 1 µM for everything below.
1. CCc1nc(C(N)=O)c(Nc2ccc(N3CCC(N4CCN(C)CC4)CC3)c(OC)c2)nc1NC1CCOCC1
2. C=CC(=O)N1CCC([C@@H]2CCNc3c(C(N)=O)c(-c4ccc(Oc5ccccc5)cc4)nn32)CC1

1: 5.55; 2: 4.32

Quick batch: inhibition at 1 µM for everything below.
1. CCn1c(=O)c(-c2cc(NC(=O)Nc3ccccc3)c(F)cc2Br)cc2cnc(NC)cc21
2. COC(=O)N[C@@H](C)CNc1nccc(-c2cn(C(C)C)nc2-c2cc(Cl)cc(NS(C)(=O)=O)c2F)n1
3. CN1CCN(c2ccc(C(=O)Nc3n[nH]c4ccc(Cc5cc(F)cc(F)c5)cc34)c(NC3CCOCC3)c2)CC1

1: 1.8; 2: 15; 3: 10
